Overview of reported LUM: mean difference in luminescence (ATP content) relative to plate controls across a group of compounds:
Test system: Caenorhabditis elegans strain PE255
Assay: In vivo C. elegans ATP status assay
Settings: 1 µM
The answer should be written as a number, with no unit following it.

# count of solved cases: 2
Nc1ccc(N)c2c1C(=O)c1ccccc1C2=O [1,4-Diaminoanthraquinone] :: 0.08336
O=C(Nc1ccccc1)Nc1ccccc1 [Diphenylurea] :: 0.1632

From here, focus on the item given below.
Enquiry: Read off the recorded LUM: mean difference in luminescence (ATP content) relative to plate controls for CO/C=C(/C(=O)OC)c1ccccc1COc1cccc(C(F)(F)F)n1 [Picoxystrobin]
Return: -0.1059

----------
Overview of reported II-ADP, % of control (O2 consumption rate) across a group of molecules:
Tested on: isolated rat liver mitochondria
Assay: Oxygen consumption, Clark-type oxygen electrode
Format: biochemical
Settings: 0.0064 µM

# count of solved cases: 3
C=C(C)[C@H]1Cc2c(ccc3c2O[C@@H]2COc4cc(OC)c(OC)cc4[C@@H]2C3=O)O1 [Rotenone, reference compound] :: 83 (74.3) % of control
CC(C)(C)c1cc([N+](=O)[O-])cc([N+](=O)[O-])c1O :: 105 (66) % of control
N#CC(C#N)=NNc1ccc(OC(F)(F)F)cc1 [FCCP, reference compound] :: 96 (85.4) % of control

From here, focus on the item given below.
Enquiry: Give isolated rat liver mitochondria II-ADP, % of control (O2 consumption rate) for the following molecule: CCCCCC[C@H]1C(=O)O[C@H](C)[C@H](NC(=O)c2cccc(NC=O)c2O)C(=O)O[C@@H](C)[C@@H]1OC(=O)CC(C)C [Antimycin A, reference compound]
Return: 83 (52.2) % of control

----------
Test system: HepG2 cells
Conditions: HepG2 cells; single number from one experiment
Returns: string. Value is Yes if measured MMP assays efficacy (%) HepG2 is below -90%, and No if it is greater than or equal to it.

Enquiry: For CC(=O)Nc1ccc(NC(=S)NC(=O)c2ccc(C(C)(C)C)cc2)cc1 [Tenovin-1] , is the recorded MMP assays efficacy (%) HepG2 below the cut-off of -90%?
Return: Yes

Enquiry: For CC(C)(c1cc(Br)c(O)c(Br)c1)c1cc(Br)c(O)c(Br)c1 [3,3φ,5,5φ-Tetrabromobisphenol A] , is the recorded MMP assays efficacy (%) HepG2 below the cut-off of -90%?
Return: Yes

Enquiry: For Oc1ccc2cc(SSc3ccc4cc(O)ccc4c3)ccc2c1 [6-Hydroxy-2-naphthyl disulfide] , is the recorded MMP assays efficacy (%) HepG2 below the cut-off of -90%?
Return: Yes

Enquiry: For CCCCCCCCCCn1cc[n+](C)c1.F[B-](F)(F)F [1-Decyl-3-methylimidazolium tetrafluoroborate] , is the recorded MMP assays efficacy (%) HepG2 below the cut-off of -90%?
Return: Yes

Enquiry: For O=C(O)Cc1cc(I)c(Oc2cc(I)c(O)c(I)c2)c(I)c1 [3,3',5,5'-Tetraiodothyroacetic acid] , is the recorded MMP assays efficacy (%) HepG2 below the cut-off of -90%?
Return: No

----------
System: HepG2 cells
Test: cells
Conditions: Homo sapiens, HepG2, read-out: MMP assays IC50 (µM) HepG2
Categorized via IC50: category 1 (below 3 µM), category 2 (3 µM to below 20 µM), category 3 (20 µM or more)

Here's what some known entries look like.
NNc1nc(-c2ccc([N+](=O)[O-])cc2)cs1 [2-Hydrazino-4-(4-nitrophenyl)thiazole] :: category 1
Cc1cc(O)c(C(C)(C)C)cc1Sc1cc(C(C)(C)C)c(O)cc1C :: category 2
Cc1ccccc1C(=O)Nc1ccc(C(=O)N2CCCC(O)c3cc(Cl)ccc32)c(C)c1 (stereo not drawn) :: category 2
CCCSc1ccc2nc(NC(=O)OC)[nH]c2c1 :: category 2
Cl[Si](Cl)(c1ccccc1)c1ccccc1 :: category 3
O=C(Nc1ncc([N+](=O)[O-])s1)c1cccs1 :: category 1
CO[C@H]1C[C@@H]2CC[C@@H](C)[C@@](O)(O2)C(=O)C(=O)N2CCCC[C@H]2C(=O)O[C@H]([C@H](C)C[C@@H]2CC[C@@H](OCCO)[C@H](OC)C2)CC(=O)[C@H](C)/C=C(\C)[C@@H](O)[C@@H](OC)C(=O)[C@H](C)C[C@H](C)/C=C/C=C/C=C/1C :: category 3
COc1ccc(/C=C/C(=O)c2ccc(OC)cc2OC)cc1 :: category 3

Enquiry: Category of Nc1cc(Cl)c(O)c(Cl)c1 :
Return: category 2

Enquiry: Category of O=C1OC(=O)c2cccc3cccc1c23 :
Return: category 2

Enquiry: Category of Brc1ccc(Oc2ccc(Br)cc2Br)c(Br)c1 :
Return: category 3

Enquiry: Category of CN(C)c1ccc(C(=C2C=CC(=[N+](C)C)C=C2)c2ccc(N(C)C)cc2)cc1 :
Return: category 1

Enquiry: Category of Clc1ccccc1-c1ccccc1Cl :
Return: category 3

Enquiry: Category of CC(=O)Oc1ccc2c(c1)CC[C@@H]1[C@@H]2CC[C@]2(C)[C@@H](O)CC[C@@H]12 [Estradiol acetate] :
Return: category 2

Enquiry: Category of O=C(Nc1ccc(Cl)c(Cl)c1)c1cc(Cl)cc(Cl)c1O [3,5-Dichlorosalicyl-3,4-dichloroanilide] :
Return: category 1

----------
Test system: isolated rat liver mitochondria
Experiment: Oxygen consumption, Clark-type oxygen electrode
Type: biochemical
Conditions: 100 µM; succinate-driven state 3 respiration; isolated rat liver mitochondria
MEASUREMENT KIND: II-ADP, % of control (O2 consumption rate)

# count of solved cases: 3
NNc1nc(-c2ccc([N+](=O)[O-])cc2)cs1 [2-Hydrazino-4-(4-nitrophenyl) thiazole] :: 114 (77.1) % of control
NNc1nc(-c2ccc(N)cc2)cs1 [2-Hydrazino-4-(4-aminophenyl) thiazole] :: 101 (68.1) % of control
Cl.N=C1C=CC(=C(c2ccc(N)cc2)c2ccc(N)cc2)C=C1 [C.I. Basic red 9 monohydrochloride] :: 31 (21.0) % of control

Enquiry: Read off the recorded II-ADP, % of control (O2 consumption rate) for COc1cc2c(cc1OC)-c1cc3ccc(OC)c(OC)c3c[n+]1CC2 [Palmatine chloride hydrate]
Return: 56 (40.4) % of control

Enquiry: Read off the recorded II-ADP, % of control (O2 consumption rate) for Cc1cc(Cc2cc(C)cc(C(C)(C)C)c2O)c(O)c(C(C)(C)C)c1
Return: 91 (33.1) % of control

----------
System: HepG2 cells
Test: cells
Details: Homo sapiens, HepG2, read-out: MMP assays efficacy (%) HepG2
Returns: string. Value is 1 if measured Emax is below 90%, and -1 if it is greater than or equal to it.

Clc1ccc(C(c2ccc(Cl)cc2)C(Cl)(Cl)Cl)cc1 :: 1

Enquiry: For C#C[C@]1(O)CC[C@H]2[C@@H]3CCC4=CC(=NO)CC[C@@H]4[C@H]3CC[C@@]21CC (mixture of isomers) , is the recorded Emax below the cut-off of 90%?
Return: -1

Enquiry: For Clc1ccc(C(c2ccccc2Cl)C(Cl)Cl)cc1 (centres unmarked) , is the recorded Emax below the cut-off of 90%?
Return: -1

Enquiry: For O=C1c2ccccc2C(=O)c2c(O)ccc(O)c21 [1,4-Dihydroxyanthracene-9,10-dione] , is the recorded Emax below the cut-off of 90%?
Return: 1

----------
Overview of reported IC50 across a group of molecules:
Test system: rat primary hepatocytes
Test: MMP assay in rat primary hepatocytes
Details: Rattus norvegicus, Hepatocyte, read-out: MMP assays IC50 (µM) Rat Hepatocytes
Structures can show the parent of a compound that is named as a salt.
Quick reminder: number only, in µM, skip the unit.

# count of solved cases: 3
CC(=O)[C@]1(O)Cc2c(O)c3c(c(O)c2[C@@H](O[C@H]2C[C@H](N)[C@H](O)[C@H](C)O2)C1)C(=O)c1ccccc1C3=O [Idarubicin hydrochloride] :: 27
CC(=O)C(Cl)(Cl)Cl [1,1,1-Trichloropropanone] :: 23.7
CC[C@@H](C(=O)[C@@H](C)[C@@H](O)[C@H](C)CCc1ccc(C)c(O)c1C(=O)O)[C@H]1O[C@](CC)([C@H]2CC[C@](O)(CC)[C@H](C)O2)C[C@@H]1C [Lasalocid sodium, reference compound] :: 1.3

Enquiry: Read off the recorded IC50 for c1ccc(CCCc2ccncc2)cc1 [4-(3-Phenylpropyl)pyridine]
Return: 13

Enquiry: Read off the recorded IC50 for Oc1ccc2ccc3cccc4ccc1c2c34 [Compound 1-Hydroxypyrene]
Return: 33.5

Enquiry: Read off the recorded IC50 for COc1cccc2c1C(=O)c1c(O)c3c(c(O)c1C2=O)C[C@@](O)(C(=O)CO)C[C@@H]3O[C@H]1C[C@H](N)[C@H](O[C@@H]2CCCCO2)[C@H](C)O1 [Pirarubicin]
Return: 0.03

Enquiry: Read off the recorded IC50 for Brc1ccc(Oc2ccc(Br)cc2Br)c(Br)c1 [2,2'4,4'-Tetrabromodiphenyl ether]
Return: 25.6

Enquiry: Read off the recorded IC50 for Cc1ccc(C(C)(C)C)c(O)c1 [Compound 2-tert-Butyl-5-methylphenol]
Return: 40.1

Enquiry: Read off the recorded IC50 for O=C(Nc1ccc(Oc2ccc(Cl)cc2)c(Cl)c1)c1cc(I)cc(I)c1O [Rafoxanide, reference compound]
Return: 1.86

Enquiry: Read off the recorded IC50 for O=[N+]([O-])c1ccc(Nc2ccccc2)cc1 [Compound 4-Nitro-N-phenylaniline]
Return: 23.9

Enquiry: Read off the recorded IC50 for CC(C)[C@H](C(=O)OC(C#N)c1cccc(Oc2ccccc2)c1)c1ccc(OC(F)F)cc1 (stereo partly drawn) [Flucythrinate]
Return: 43.9

Enquiry: Read off the recorded IC50 for c1ccc(-c2cccc(-c3ccccc3)c2)cc1 [1,1':3',1''-Terphenyl]
Return: 29.6

Enquiry: Read off the recorded IC50 for COC(=O)C1=C(C)NC(C)=C(C(=O)OC(C)(C)CN(C)CCC(c2ccccc2)c2ccccc2)C1c1cccc([N+](=O)[O-])c1 (stereo not drawn) [Lercanidipine hydrochloride]
Return: 27.5

Enquiry: Read off the recorded IC50 for O=C(O)Cc1sc(-c2ccccc2)nc1-c1ccc(Cl)cc1 [Fentiazac]
Return: 9.49

Enquiry: Read off the recorded IC50 for CC(C)=CCOc1ccc(/C=C/C(=O)c2ccc(OCC=C(C)C)cc2OCC(=O)O)cc1 [Sofalcone]
Return: 19.5

Every entry's value here was drawn from paper PMC6112376.
